What TGI was measured for each of the following?
Tested on: SK-MEL-28 melanoma
assay_method_text: NCI tumour cell line growth inhibition, 48 h

Identify measured TGI corresponding to CCOC(=O)c1ccc2c(=O)n3c(C(=O)OCC)ccc3c(=O)n12
> 100 µM

Identify measured TGI corresponding to COc1ccc(CCNC(=S)/N=C\C2=C(O)c3ccccc3C2=O)cc1OC
> 100 µM

Identify measured TGI corresponding to COC(=O)C1(Cc2ccc3c(c2)CCC3)Cc2cc3c(cc2C1=O)CCC3 (stereo not given)
> 46.4 µM

Identify measured TGI corresponding to CCOc1ccc(-n2c(=O)n3c(Nc4ccc(Cl)cc4)nc4c(c(=O)n(C)c(=O)n4C)n3c2=O)cc1
65.3 µM

Identify measured TGI corresponding to CCOC(=O)c1[nH]n(-c2ccccc2)c(=O)c1C=NC(=S)C(N)=S
> 100 µM

Identify measured TGI corresponding to CC(=O)Oc1cc(OC(C)=O)c2cc3c(cc2c1OC(C)=O)C(=O)C1(CCCC1)C3=O
31.7 µM

Identify measured TGI corresponding to FC(F)(F)c1nc2cc(SSc3cc4nc(C(F)(F)F)[nH]c4cc3Cl)c(Cl)cc2[nH]1
> 100 µM

Identify measured TGI corresponding to CCOC(=O)C1CCCC1S(=O)(=O)c1ccc(C)cc1 (stereo not given)
> 100 µM

Identify measured TGI corresponding to O=C(O)C1=C(Cl)c2ccccc2S1(=O)=O
> 100 µM

Identify measured TGI corresponding to N=C(N)Cn1cnc2ccccc21
> 100 µM

* * *

Tested on: COLO 205 colon
assay_method_text: NCI tumour cell line growth inhibition, 48 h; in the data active means GI50 below about 0.43 µM; inactive means the rest
Classes to choose from: TRUE for active, FALSE for inactive

// param item: CN(C)CCC(=O)NCc1c2nc3ccccc3nc2n2ccccc12 ; yields the recorded call
FALSE

// param item: CN(C)CCN1C(=O)c2cccc3c(-c4ccc5ncn(C6CCCCC6)c5c4)ccc(c23)C1=O ; yields the recorded call
FALSE

// param item: Cc1sc2c(c1C)C(c1ccc(Cl)cc1)=N[C@@H](CC(=O)Nc1ccc(O)cc1)c1nnc(C)n1-2 ; yields the recorded call
TRUE

// param item: O=C1C(Cl)=C(Nc2ccc3c(c2NC2=C(Cl)C(=O)c4ccccc4C2=O)C(=O)c2ccccc2C3=O)C(=O)c2ccccc21 ; yields the recorded call
FALSE

// param item: O=C1/C(=C/c2ccc(C(F)(F)F)cc2)COc2ccc(O)cc21 ; yields the recorded call
FALSE

// param item: COc1cc(/C=N/O)nc(-c2ccccn2)c1 ; yields the recorded call
TRUE

// param item: C=CC1=C(C)C(Cc2[nH]c(/C=c3\[nH]/c(=C/C4=NC(=O)C(C)/C4=C\C)c(C)c3CCC(=O)O)c(CCC(=O)OC)c2C)NC1=O (centres undefined) ; yields the recorded call
FALSE

// param item: CCN1CCN(c2nc(C)cc(N(CCCNc3ccnc4cc(Cl)ccc34)Cc3ccco3)n2)CC1 ; yields the recorded call
FALSE

// param item: CO[C@@]12[C@H](COC(N)=O)C3=C(C(=O)C(C)=C(N)C3=O)N1C[C@@H]1N[C@@H]12 ; yields the recorded call
FALSE

* * *

Tested on: SK-OV-3 ovarian
assay_method_text: NCI tumour cell line growth inhibition, 48 h
metric: TGI

Identify measured TGI corresponding to CC(=O)O[C@@H]1CC2[C@@H](CCC3Cc4nc5c(nc4C[C@@]32C)CC2CC[C@@H]3C(CC[C@@]4(C)C3CC[C@@H]4C(C)CCCC(C)C)[C@@]2(C)C5)C2C[C@@H]3OC4(CCC(C)CO4)C(C)[C@@H]3[C@]21C (some centres not stated)
> 100 µM

Identify measured TGI corresponding to OC1NC2CC3NC(O)C(O)NC3CC2NC1O (configuration not stated)
> 100 µM

Identify measured TGI corresponding to FC(F)(F)c1nc2cc(SSc3cc4nc(C(F)(F)F)[nH]c4cc3Cl)c(Cl)cc2[nH]1
> 100 µM

Identify measured TGI corresponding to Cc1cc(NS(=O)(=O)c2ccc(NC(=O)c3cccc4c(NNc5ccc(S(N)(=O)=O)cc5)c5ccccc5nc34)cc2)no1
> 100 µM

Identify measured TGI corresponding to CN1CCN(c2ccc3nc(-c4ccc5nc(-c6ccc(N(C)CCCl)cc6)[nH]c5c4)[nH]c3c2)CC1
1.2 µM

Identify measured TGI corresponding to CCc1c(-c2coc(CC/C(C)=C/c3ccccc3)n2)oc(OC)c(C)c1=O
> 100 µM

Identify measured TGI corresponding to Cc1ccc2oc(=O)cc(C3c4ccc([nH]4)C(c4cc(=O)oc5ccc(C)cc45)c4ccc([nH]4)C(c4cc(=O)oc5ccc(C)cc45)c4ccc([nH]4)C(c4cc(=O)oc5ccc(C)cc45)c4ccc3[nH]4)c2c1 (configuration not stated)
0.0687 µM

Identify measured TGI corresponding to C[n+]1ccc2[nH]c3ccccc3c2c1
> 100 µM

Identify measured TGI corresponding to CCN1CCN(c2nc(C)cc(N(CCCNc3ccnc4cc(Cl)ccc34)Cc3ccco3)n2)CC1
30.7 µM

Identify measured TGI corresponding to C[C@@H]1CCC2[C@@H](C)[C@H](OC(=O)CCC(=O)NCCNC(=O)Cc3cc(=O)oc4cc(N(C)C)ccc34)O[C@@H]3O[C@]4(C)CC[C@@H]1C23OO4 (some centres not stated)
> 100 µM

Identify measured TGI corresponding to COc1ccc2c(c1)Cc1c-2[nH]c2cc3c(cc2c1=O)OCO3
95.8 µM

Identify measured TGI corresponding to Cc1sc2c(c1C)C(c1ccc(Cl)cc1)=N[C@@H](CC(=O)Nc1ccc(O)cc1)c1nnc(C)n1-2
15 µM

Identify measured TGI corresponding to O=C1/C(=C/c2ccc(C(F)(F)F)cc2)COc2ccc(O)cc21
29.7 µM

Identify measured TGI corresponding to c1cc(-c2cnn3nc(N4CCOCC4)ccc23)nc(NC2CC2)n1
> 25 µM

Identify measured TGI corresponding to O=C(Nc1cc([N+](=O)[O-])cc([N+](=O)[O-])c1)OC1C2CCC1C1OC1C2 (configuration not stated)
> 50 µM

Identify measured TGI corresponding to CCOC(=O)CCc1c(C)c2c(O)cc(O)cc2oc1=O
> 100 µM

Identify measured TGI corresponding to CC(=O)C1C(=O)C(=O)N(c2ccc([N+](=O)[O-])cc2Cl)C1=O (configuration not stated)
> 100 µM
